Origin of measurements: patent US20250197387A1

Each entry below carries its recorded DC50.
Biological target: BCL-XL (Homo sapiens)
Construct: endogenous in cells; host or cells: MOLT-4
Assay: BCL-XL degradation assay, western blot in MOLT-4 cells, 16 h
Format: cell-based
Details: western blot, MOLT-4 cells, 16 h; read-out: Bcl-xL WB in MOLT-4 degradation 16 h: Mean external-Abs DC50

Reference set, count: 6
Suppose we examine the compound Cc1ncsc1-c1ccc([C@H](C)NC(=O)[C@@H]2C[C@@H](O)CN2C(=O)C(c2cc(OC3CC4(C3)CN(C(=O)c3nc(N5CCc6cccc(C(=O)Nc7nc8ccccc8s7)c6C5)ccc3-c3cnn(CC5CCCCC5)c3C)C4)no2)C(C)C)cc1 (stereo partly shown) ; what DC50 value has been reported?
< 0.01 µM

Would you kindly repeat that for Cc1ncsc1-c1ccc(CNC(=O)[C@@H]2C[C@@H](O)CN2C(=O)[C@@H](NC(=O)CCOCCOCCOCCOCCOCCOCC#Cc2ccc(OCCCc3sc(N4CCc5cccc(C(=O)Nc6nc7ccccc7s6)c5C4)nc3C(=O)O)cc2)C(C)(C)C)cc1 ?
0.01 to 0.1 µM

Would you kindly repeat that for C#Cc1ccc([C@H](CO)NC(=O)[C@@H]2C[C@@H](O)CN2C(=O)[C@@H](NC(=O)CCCCCC(=O)N2CCN(CC[C@H](CSc3ccccc3)Nc3ccc(S(=O)(=O)NC(=O)c4ccc(N5CCN(CC6=C(c7ccc(Cl)cc7)CCC(C)(C)C6)CC5)cc4)cc3S(=O)(=O)C(F)(F)F)CC2)C(C)(C)C)cc1 ?
0.01 to 0.1 µM

Would you kindly repeat that for Cc1ncsc1-c1ccc([C@H](C)NC(=O)[C@@H]2C[C@@H](O)CN2C(=O)[C@@H](NC(=O)CCCCCC(=O)NCCOc2ccc(C(=O)Nc3nc4ccccc4s3)c3c2CCN(c2ccc(-c4cnn(CC5CCCCC5)c4C)c(C(=O)O)n2)C3)C(C)(C)C)cc1 ?
0.1 to 0.5 µM

Would you kindly repeat that for Cc1cc(N(C)c2ccc(-c3cnn(CC4CCCCC4)c3C)c(C(=O)NS(=O)(=O)CCCCCC(=O)N[C@H](C(=O)N3C[C@H](O)C[C@H]3C(=O)N[C@@H](C)c3ccc(-c4scnc4C)cc3)C(C)(C)C)n2)nnc1Nc1nc2ccccc2s1 ?
0.01 to 0.1 µM

Would you kindly repeat that for Cc1ncsc1-c1ccc(CNC(=O)[C@@H]2C[C@@H](O)CN2C(=O)[C@@H](NC(=O)C2(F)CC2)C(C)(C)C)c(O[C@H]2CC[C@@H](C(=O)N3CCN(CC[C@H](CSc4ccccc4)Nc4ccc(S(=O)(=O)NC(=O)c5ccc(N6CCN(CC7=C(c8ccc(Cl)cc8)CCC(C)(C)C7)CC6)cc5)cc4S(=O)(=O)C(F)(F)F)CC3)CC2)c1 ?
> 1 µM

Shifting focus to the compound that follows.
Suppose we examine the compound Cc1ncsc1-c1ccc([C@H](C)NC(=O)[C@@H]2C[C@@H](O)CN2C(=O)[C@@H](NC(=O)CCCCCC(=O)N2CCN(CC[C@H](CSc3ccccc3)Nc3ccc(S(=O)(=O)NC(=O)c4ccc(N5CCC(C)(C)CC5)cc4)cc3S(=O)(=O)C(F)(F)F)CC2)C(C)(C)C)cc1 ; what DC50 value has been reported?
> 1 µM

* * *

Target: BCL-XL (Homo sapiens, UniProt Q07817)
Construct: endogenous in cells; host or cells: MOLT-4
Sequence (Q07817 whole entry): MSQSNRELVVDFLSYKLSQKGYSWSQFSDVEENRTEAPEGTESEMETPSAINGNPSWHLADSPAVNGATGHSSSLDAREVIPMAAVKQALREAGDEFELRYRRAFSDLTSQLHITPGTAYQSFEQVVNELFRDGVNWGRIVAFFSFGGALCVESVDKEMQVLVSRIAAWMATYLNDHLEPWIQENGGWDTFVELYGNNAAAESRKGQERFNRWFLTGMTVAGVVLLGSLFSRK
Experiment: Bcl-xL ELISA degradation in MOLT-4 cells, 6 h
Format: cell-based
Settings: read-out: Bcl-xL ELISA in MOLT-4 degradation 6 h: Mean external-Abs DC50
readoutType: DC50

Suppose we examine the molecule Cc1ncsc1-c1ccc(CNC(=O)[C@@H]2C[C@@H](O)CN2C(=O)[C@@H](NC(=O)C2(F)CC2)C(C)(C)C)c(OCCN2CCN(CC[C@H](CSc3ccccc3)Nc3ccc(S(=O)(=O)NC(=O)c4ccc(N5CC6(CC(N7CCC[C@H]7c7ccccc7C7CC7)C6)C5)cc4)cc3S(=O)(=O)C(F)(F)F)CC2)c1 [I-400] ; what DC50 value has been reported?
0.01 to 0.1 µM

New cases:
Suppose we examine the molecule C#Cc1ccc(CNC(=O)[C@@H]2C[C@@H](O)CN2C(=O)[C@@H](NC(=O)CCCCCS(=O)(=O)NC(=O)c2nc(N3CCc4cccc(C(=O)Nc5nc6ccccc6s5)c4C3)ccc2-c2cnn(CC3CCCCC3)c2C)C(C)(C)CCOP(=O)(O)O)cc1 [I-417] ; what DC50 value has been reported?
> 1 µM
